Measured values drawn from patent US20250179059A1 for this set.

Reported GI50 values for the following compounds.
# System: human SKM-1 acute myeloid leukemia cells
# TEST_PROTOCOL: SKM-1 antiproliferation cell-based assay (ATPlite)
# CONDITION_DESCRIPTION: Homo sapiens, SKM-1, 96 h, SKM-1 antiproliferation assay, 4 days, Table C2

{"COMPOUND": "Cn1ccn(-c2ccc(-c3cc(F)cc(-c4ccnc(N5CCN(CC(=O)O)CC5)c4)c3O)cc2Cl)c1=O [Example 521]", "GI50": "30 to 300 nM"}
{"COMPOUND": "Cc1cc(-c2cccc(-c3ccc(N4CCN(C)C4=O)c(Cl)c3)c2O)cc(N2CCNCC2)n1 [Example 338]", "GI50": "30 to 300 nM"}
{"COMPOUND": "Cn1ccn(-c2ccc(-c3cc(F)cc(-c4cc(N5CC[C@H](N)C5)c5cn[nH]c5c4)c3O)cc2Cl)c1=O [Example 558]", "GI50": "0.3 to 30 nM"}
{"COMPOUND": "Cn1ccn(-c2ccc(-c3cc(F)cc(-c4ccnc(-c5ccncc5)c4)c3O)cc2Cl)c1=O [Example 481]", "GI50": "300 to 3000 nM"}
{"COMPOUND": "Cn1ccn(-c2ccc(-c3cc(F)cc(-c4ccnc(N5CC6CCC(C5)C6(C)N)c4)c3O)cc2Cl)c1=O (stereo not shown) [Example 757]", "GI50": "30 to 300 nM"}
{"COMPOUND": "Cn1ccn(-c2ccc(-c3cc(F)cc(-c4ccnc(N5CCC(O)(C6CC6)C5)c4)c3O)cc2Cl)c1=O (stereo not shown) [Example 718]", "GI50": "0.3 to 30 nM"}
{"COMPOUND": "O=C1CCCN1c1ccc(-c2cccc(-c3cncc(N4CCNCC4)c3)c2O)cc1Cl [Example 262]", "GI50": "30 to 300 nM"}

----------
# Test system: human SKM-1 acute myeloid leukemia cells
# TEST_PROTOCOL: SKM-1 antiproliferation cell-based assay (ATPlite)
# CONDITION_DESCRIPTION: Homo sapiens, SKM-1, 96 h, SKM-1 antiproliferation assay, 4 days, Table C2
Reported GI50 values for the following compounds.

{"COMPOUND": "CN1CCN(c2ccc(-c3cccc(-c4cc(N5CCNCC5)c(=O)n(C)c4)c3O)cc2Cl)C1=O [Example 342]", "GI50": "30 to 300 nM"}
{"COMPOUND": "CN(C)[C@H]1CCCN(c2cncc(-c3cc(F)cc(-c4ccc(-n5ccn(C)c5=O)c(Cl)c4)c3O)c2)C1 [Example 501]", "GI50": "0.3 to 30 nM"}
{"COMPOUND": "Cn1ccn(-c2ccc(-c3cc(F)cc(-c4ccnc(N5CCC6(CCO6)C5)c4)c3O)cc2Cl)c1=O (stereo not shown) [Example 674]", "GI50": "30 to 300 nM"}
{"COMPOUND": "CC(=O)NCc1ccc(-c2cccc(-c3ccc(N4CCN(C)C4=O)c(Cl)c3)c2O)cc1N1CCNCC1 [Example 320]", "GI50": "30 to 300 nM"}

----------
Reported pIC50 values for the following compounds.
# TEST_TARGET: human BRD4 bromodomain II (Homo sapiens)
# Construct: human BRD4 bromodomain II [based on Genbank NM_058243, residues 349-460]; host or cells: E. coli
# TEST_PROTOCOL: Bromodomain binding assay (AlphaScreen), BRD4 BDII
# CONDITION_DESCRIPTION: BRD4 BDII AlphaScreen assay; read-out: BRD4 BD2 IC50
pIC50: −log10 of the molar value.

{"COMPOUND": "COc1cc(-c2ccc(-n3ccn(C)c3=O)c(Cl)c2)c(O)c(-c2cccc(N3CCN(C(C)(C)C)CC3)c2)n1", "pIC50": "8.00 to 9.00"}
{"COMPOUND": "Cc1cc(-c2ccc(-n3ccn(C)c3=O)c(C)c2)c(O)c(-c2cccc(N3CCN(C(C)(C)C)CC3)c2)n1", "pIC50": "8.00 to 9.00"}
{"COMPOUND": "Cc1ncc(-c2cc(F)cc(-c3ccc(-n4ccn(C)c4=O)c(Cl)c3)c2O)cc1N1CC2(CC2)[C@](C)(O)C1", "pIC50": "9.00 to 11.00"}
{"COMPOUND": "Cn1ccn(-c2ccc(-c3cc(F)cc(-c4cccc(N5CCN(C(C)(C)C)CC5)c4)c3O)nc2)c1=O", "pIC50": "< 7.00"}
{"COMPOUND": "COc1cc(-c2cc(F)cc(-c3cccc(N4CCN(C(C)(C)C)CC4)c3)c2O)cc(Cl)c1-n1ccn(C)c1=O", "pIC50": "7.00 to 8.00"}
{"COMPOUND": "Cc1ncc(-c2cc(F)cc(-c3ccc(-n4ccn(C)c4=O)c(Cl)c3)c2O)cc1N1CCC2(CCCN2C(C)C)C1 (stereo not shown)", "pIC50": "9.00 to 11.00"}
{"COMPOUND": "CC(C)N1CC2CN(c3cccc(-c4cc(F)cc(-c5ccc(-n6ccn(C)c6=O)c(Cl)c5)c4O)c3)CC2C1 (stereo not shown)", "pIC50": "8.00 to 9.00"}
